Species on record: Mus musculus
Assay: BBB penetration classification
assay readout: Permeability

INSERT INTO assay_data (molecule, assay_readout, value_measured) VALUES
  ('OCCN1CCN(CCCN2c3ccccc3Sc3ccc(Cl)cc32)CC1', 'Permeability', 'Permeable'),
  ('O=C(Cc1ccc(Cl)c(Cl)c1)N1CCc2occc2[C@@H]1CN1CC[C@H](O)C1 (racemic)', 'Permeability', 'Permeable'),
  ('O=c1[nH]c2ccccc2n1CCCN1CCC(n2c(=O)[nH]c3cc(Cl)ccc32)CC1', 'Permeability', 'Impermeable'),
  ('CSc1ccc2c(c1)N(CCC1CCCCN1C)c1ccccc1S2 (stereo not given)', 'Permeability', 'Permeable'),
  ('CN/C(=N/CCSCc1nc[nH]c1C)NC#N', 'Permeability', 'Impermeable'),
  ('C[C@]12CC[C@@H]3c4ccc(O)cc4CC[C@H]3[C@@H]1CC[C@@H]2O', 'Permeability', 'Permeable'),
  ('Clc1cccc(Cl)c1N=C1NCCN1', 'Permeability', 'Permeable'),
  ('C[C@@H](CN1c2ccccc2Sc2ccccc21)N(C)C [(S)-PROMETHAZINE]', 'Permeability', 'Permeable'),
  ('CC(C)(C)c1ccc(C(=O)CCCN2CCC(OC(c3ccccc3)c3ccccc3)CC2)cc1', 'Permeability', 'Impermeable'),
  ('O=C(Cc1ccc(Cl)c(Cl)c1)N1CCCC[C@H]1CN1CCCC1', 'Permeability', 'Permeable'),
  ('CNCCCN1c2ccccc2CCc2ccccc21', 'Permeability', 'Permeable'),
  ('NCCc1ccc(O)c(O)c1', 'Permeability', 'Impermeable'),
  ('O=C(Cc1ccc(Cl)c(Cl)c1)N1CCc2occc2[C@H]1CN1CC[C@@H](O)C1 (mixture of isomers)', 'Permeability', 'Permeable'),
  ('Cn1c(=O)c2c(ncn2C)n(C)c1=O', 'Permeability', 'Permeable'),
  ('O=C(Cc1ccc(Cl)c(Cl)c1)N1CCc2occc2[C@H]1CN1CC[C@H](O)C1', 'Permeability', 'Permeable'),
  ('CCCC(C)C1(CC)C(=O)NC(=S)NC1=O (stereo not given)', 'Permeability', 'Permeable'),
  ('O=C1CC[C@@]2(O)[C@H]3Cc4ccc(O)c5c4[C@@]2(CCN3CC2CC2)[C@H]1O5 [NALTREXONE]', 'Permeability', 'Permeable'),
  ('C[C@H](CN1c2ccccc2Sc2ccccc21)N(C)C', 'Permeability', 'Permeable'),
  ('CCn1cc(C(=O)O)c(=O)c2cc(F)c(N3CCNCC3)cc21', 'Permeability', 'Impermeable'),
  ('CN(C)CCCN1c2ccccc2Sc2ccc(Cl)cc21', 'Permeability', 'Permeable'),
  ('COc1ccc(CCN2CCC(Nc3nc4ccccc4n3Cc3ccc(F)cc3)CC2)cc1', 'Permeability', 'Impermeable'),
  ('CNC(=C[N+](=O)[O-])NCCSCc1ccc(CN(C)C)o1', 'Permeability', 'Impermeable'),
  ('CCC(NC(=O)c1c(C)c(-c2ccccc2)nc2ccccc12)c1ccccc1 (stereo not given)', 'Permeability', 'Permeable'),
  ('CC(C)(C)c1ccc([C@H](O)CCCN2CCC(C(O)(c3ccccc3)c3ccccc3)CC2)cc1', 'Permeability', 'Impermeable'),
  ('CC(C)(C)c1ccc([C@@H](O)CCCN2CCC(C(O)(c3ccccc3)c3ccccc3)CC2)cc1', 'Permeability', 'Impermeable');
